# Protocol notes: Test of storage stability in solution
# Type: physicochemical
# Measurement conditions: 13 mg in 1 mL TFP, brown bottle, 25° C., 3 days; 1250-fold diluted for measurement
Each entry below lists one item and its recorded I^c/I^c0 (absorbance ratio at absorption maximum after/before storage stability test) value.
Property: I^c/I^c0 (absorbance ratio at absorption maximum after/before storage stability test)

# Smiles notation, Experimental result
measured = [
    ("Cc1c(/C=N/[N-]c2nnnn2-c2ccccc2)c([O-])n(CC(C)C)c(=O)c1C#N.Cc1c(/C=N/[N-]c2nnnn2-c2ccccc2)c([O-])n(CC(C)C)c(=O)c1C#N.Cc1c(/C=N/[N-]c2nnnn2-c2ccccc2)c([O-])n(CC(C)C)c(=O)c1C#N.Cc1c(/C=N/[N-]c2nnnn2-c2ccccc2)c([O-])n(CC(C)C)c(=O)c1C#N.Fc1ccc(-[n+]2ccc(-c3cc[n+](-c4ccc(F)cc4)cc3)cc2)cc1.[Co+3].[Co+3]", 1.00),
    ("Cc1c(/C=N/[N-]c2nnnn2-c2ccccc2)c([O-])n(CC(C)C)c(=O)c1C#N.Cc1c(/C=N/[N-]c2nnnn2-c2ccccc2)c([O-])n(CC(C)C)c(=O)c1C#N.Cc1c(/C=N/[N-]c2nnnn2-c2ccccc2)c([O-])n(CC(C)C)c(=O)c1C#N.Cc1c(/C=N/[N-]c2nnnn2-c2ccccc2)c([O-])n(CC(C)C)c(=O)c1C#N.[Co+3].[Co+3].c1cc[n+]2c(c1)-c1cccc[n+]1CCC2", 1.01),
]

###

# Protocol notes: Lightfastness test of thin films
# Assay type: physicochemical
# Measurement conditions: thin film on glass plate, UV fluorescent lamps 15 W/m^2, 45° C., 10 hours
Property: I^a/I^a0 (absorbance ratio at absorption maximum after/before lightfastness test)

# Smiles notation, Experimental result
data = [
    ("Cc1c(/C=N/[N-]c2nnnn2-c2ccccc2)c([O-])n(CC(C)C)c(=O)c1C#N.Cc1c(/C=N/[N-]c2nnnn2-c2ccccc2)c([O-])n(CC(C)C)c(=O)c1C#N.Cc1c(/C=N/[N-]c2nnnn2-c2ccccc2)c([O-])n(CC(C)C)c(=O)c1C#N.Cc1c(/C=N/[N-]c2nnnn2-c2ccccc2)c([O-])n(CC(C)C)c(=O)c1C#N.FC(F)(F)c1cccc(-[n+]2ccc(-c3cc[n+](-c4cccc(C(F)(F)F)c4)cc3)cc2)c1.[Co+3].[Co+3]", 0.85),
    ("COc1ccc2cc3[n+](cc2c1OC)CCc1cc2c(cc1-3)OCO2.Cc1c(/C=N/[N-]c2nnnn2-c2ccccc2)c([O-])n(CC(C)C)c(=O)c1C#N.Cc1c(/C=N/[N-]c2nnnn2-c2ccccc2)c([O-])n(CC(C)C)c(=O)c1C#N.[Co+3]", 0.90),
    ("Cc1c(/C=N/[N-]c2nc3ccccc3o2)c([O-])n(Cc2ccco2)c(=O)c1C#N.Cc1c(/C=N/[N-]c2nc3ccccc3o2)c([O-])n(Cc2ccco2)c(=O)c1C#N.Cc1c(/C=N/[N-]c2nc3ccccc3o2)c([O-])n(Cc2ccco2)c(=O)c1C#N.Cc1c(/C=N/[N-]c2nc3ccccc3o2)c([O-])n(Cc2ccco2)c(=O)c1C#N.Fc1cccc(-[n+]2ccc(-c3cc[n+](-c4cccc(F)c4)cc3)cc2)c1.[Co+3].[Co+3]", 0.92),
    ("CCn1c([O-])c(/C=N/[N-]C(=O)c2ccc(C(F)(F)F)cc2)c(C)c(C#N)c1=O.CCn1c([O-])c(/C=N/[N-]C(=O)c2ccc(C(F)(F)F)cc2)c(C)c(C#N)c1=O.CCn1c([O-])c(/C=N/[N-]C(=O)c2ccc(C(F)(F)F)cc2)c(C)c(C#N)c1=O.CCn1c([O-])c(/C=N/[N-]C(=O)c2ccc(C(F)(F)F)cc2)c(C)c(C#N)c1=O.Oc1ccc(-c2ccccc2)cc1-[n+]1ccc(-c2cc[n+](-c3cc(-c4ccccc4)ccc3O)cc2)cc1.[Co+3].[Co+3]", 0.97),
]

###

# Protocol notes: Test of storage stability in solution
# Assay type: physicochemical
# Measurement conditions: 13 mg in 1 mL TFP, brown bottle, 25° C., 3 days; 1250-fold diluted for measurement
Property: I^c/I^c0 (absorbance ratio at absorption maximum after/before storage stability test)

# Smiles notation, Experimental result
data = [
    ("Cc1c(/C=N/[N-]c2nnnn2-c2ccccc2)c([O-])n(CC(C)C)c(=O)c1C#N.Cc1c(/C=N/[N-]c2nnnn2-c2ccccc2)c([O-])n(CC(C)C)c(=O)c1C#N.[Co+3].c1ccc(-c2nn(-c3ccccc3)[n+](-c3ccccc3)n2)cc1", 1.01),
    ("Cc1ccc(-n2c([O-])c(/C=N/[N-]c3nnnn3-c3ccccc3)c(C)c(C#N)c2=O)cc1.Cc1ccc(-n2c([O-])c(/C=N/[N-]c3nnnn3-c3ccccc3)c(C)c(C#N)c2=O)cc1.Cc1ccc(-n2c([O-])c(/C=N/[N-]c3nnnn3-c3ccccc3)c(C)c(C#N)c2=O)cc1.Cc1ccc(-n2c([O-])c(/C=N/[N-]c3nnnn3-c3ccccc3)c(C)c(C#N)c2=O)cc1.[Co+3].[Co+3].c1cc[n+]2c(c1)-c1cccc[n+]1CCC2", 1.01),
    ("Cc1c(/C=N/[N-]c2nnnn2-c2ccccc2)c([O-])n(CC(C)C)c(=O)c1C#N.Cc1c(/C=N/[N-]c2nnnn2-c2ccccc2)c([O-])n(CC(C)C)c(=O)c1C#N.Cc1c(/C=N/[N-]c2nnnn2-c2ccccc2)c([O-])n(CC(C)C)c(=O)c1C#N.Cc1c(/C=N/[N-]c2nnnn2-c2ccccc2)c([O-])n(CC(C)C)c(=O)c1C#N.[Co+3].[Co+3].c1ccc2c[n+](CCCCCCCCCC[n+]3ccc4ccccc4c3)ccc2c1", 1.01),
]

###

# Protocol notes: Test of storage stability in solution
# Format: physicochemical
# Measurement conditions: 13 mg in 1 mL TFP, brown bottle, 25° C., 3 days; 1250-fold diluted for measurement
Listing of entries alongside the reported Δλmax(c) (change in absorption maximum wavelength).
Property: Δλmax(c) (change in absorption maximum wavelength) (nm)

# Compound, Readout units, Experimental result
measured = [
    ("Cc1c(/C=N/[N-]c2nnnn2-c2ccccc2)c([O-])n(Cc2ccccc2)c(=O)c1C#N.Cc1c(/C=N/[N-]c2nnnn2-c2ccccc2)c([O-])n(Cc2ccccc2)c(=O)c1C#N.Cc1c(/C=N/[N-]c2nnnn2-c2ccccc2)c([O-])n(Cc2ccccc2)c(=O)c1C#N.Cc1c(/C=N/[N-]c2nnnn2-c2ccccc2)c([O-])n(Cc2ccccc2)c(=O)c1C#N.[Co+3].[Co+3].c1cc[n+]2c(c1)-c1cccc[n+]1CCC2 [Complex Compound (30)]", "nm", 0),
    ("CCCCn1c([O-])c(/C=N/[N-]c2nnnn2-c2ccccc2)c(C)c(C#N)c1=O.CCCCn1c([O-])c(/C=N/[N-]c2nnnn2-c2ccccc2)c(C)c(C#N)c1=O.CCCCn1c([O-])c(/C=N/[N-]c2nnnn2-c2ccccc2)c(C)c(C#N)c1=O.CCCCn1c([O-])c(/C=N/[N-]c2nnnn2-c2ccccc2)c(C)c(C#N)c1=O.Fc1cccc(-[n+]2ccc(-c3cc[n+](-c4cccc(F)c4)cc3)cc2)c1.[Co+3].[Co+3] [Complex Compound (2)]", "nm", 0),
    ("Cc1c(/C=N/[N-]c2nnnn2-c2ccccc2)c([O-])n(CC(C)C)c(=O)c1C#N.Cc1c(/C=N/[N-]c2nnnn2-c2ccccc2)c([O-])n(CC(C)C)c(=O)c1C#N.Cc1c(/C=N/[N-]c2nnnn2-c2ccccc2)c([O-])n(CC(C)C)c(=O)c1C#N.Cc1c(/C=N/[N-]c2nnnn2-c2ccccc2)c([O-])n(CC(C)C)c(=O)c1C#N.Fc1ccc(-[n+]2ccc(-c3cc[n+](-c4ccc(F)cc4)cc3)cc2)cc1.[Co+3].[Co+3] [Complex Compound (20)]", "nm", 0.5),
]
